Hello, the source for this data is patent US8653275B2, in case you need it.

# TARGET DESC: BBB choline transporter
# EXPERIMENT SUMMARY: Affinity for the BBB choline transporter
MEASUREMENT NAME: pKi
Answers are plain numbers, as −log10 of the molar value.

{"SMILES CODE": "C1#Cc2ccc[n+](c2)CCCCCCCCCCC[n+]2cccc(c2)C#CCCCCCC1.[Br-].[Br-]", "pKi": 4.82}
{"SMILES CODE": "C1#Cc2ccc[n+](c2)CCCCCCCCCC[n+]2cccc(c2)C#CCCCCCC1", "pKi": 6.10}
{"SMILES CODE": "C1#Cc2ccc[n+](c2)CCCCCCCCC[n+]2cccc(c2)C#CCCCCCC1.[Br-].[Br-]", "pKi": 5.85}

Query molecule follows.
Return pKi measured with BBB choline transporter given this molecule: `C1#Cc2ccc[n+](c2)CCCCCC[n+]2cccc(c2)C#CCCCCCC1.[I-].[I-]`
4.47
